Tested on: Trichophyton mentagrophytes
test summary: Antifungal activity against Trichophyton mentagrophytes DUMC112.02 by CLSI protocol
Assay type: functional
Kindly supply the reported MIC values for the records listed here.
One number for each entry, in µg/mL.

compound	target desc	MIC (µg/mL)
OC(Cn1cncn1)(Cn1cncn1)c1ccc(F)cc1F	Trichophyton mentagrophytes	8
CN(C/C=C/C#CC(C)(C)C)Cc1cccc2ccccc12	Trichophyton mentagrophytes	0.004
C/C=C/C[C@@H](C)[C@@H](O)[C@H]1C(=O)N[C@@H](CC)C(=O)N(C)CC(=O)N(C)[C@@H](CC(C)C)C(=O)N[C@@H](C(C)C)C(=O)N(C)[C@@H](CC(C)C)C(=O)N[C@@H](C)C(=O)N[C@H](C)C(=O)N(C)[C@@H](CC(C)C)C(=O)N(C)[C@@H](CC(C)C)C(=O)N(C)[C@@H](C(C)C)C(=O)N1C	Trichophyton mentagrophytes	2

Let's switch to this compound now.
Given C=CC[C@@H]1/C=C(\C)C[C@H](C)C[C@H](OC)[C@H]2O[C@@](O)(C(=O)C(=O)N3CCCC[C@H]3C(=O)O[C@H](/C(C)=C/[C@@H]3CC[C@@H](O)[C@H](OC)C3)[C@H](C)[C@@H](O)CC1=O)[C@H](C)C[C@@H]2OC [TACROLIMUS ANHYDROUS] , state its recorded MIC. 1
